Quick reference: residual activity of the listed items.
Molecular target: Serine/threonine-protein kinase DCLK2 (Homo sapiens) (UniProt Q8N568)
Sequence (whole entry): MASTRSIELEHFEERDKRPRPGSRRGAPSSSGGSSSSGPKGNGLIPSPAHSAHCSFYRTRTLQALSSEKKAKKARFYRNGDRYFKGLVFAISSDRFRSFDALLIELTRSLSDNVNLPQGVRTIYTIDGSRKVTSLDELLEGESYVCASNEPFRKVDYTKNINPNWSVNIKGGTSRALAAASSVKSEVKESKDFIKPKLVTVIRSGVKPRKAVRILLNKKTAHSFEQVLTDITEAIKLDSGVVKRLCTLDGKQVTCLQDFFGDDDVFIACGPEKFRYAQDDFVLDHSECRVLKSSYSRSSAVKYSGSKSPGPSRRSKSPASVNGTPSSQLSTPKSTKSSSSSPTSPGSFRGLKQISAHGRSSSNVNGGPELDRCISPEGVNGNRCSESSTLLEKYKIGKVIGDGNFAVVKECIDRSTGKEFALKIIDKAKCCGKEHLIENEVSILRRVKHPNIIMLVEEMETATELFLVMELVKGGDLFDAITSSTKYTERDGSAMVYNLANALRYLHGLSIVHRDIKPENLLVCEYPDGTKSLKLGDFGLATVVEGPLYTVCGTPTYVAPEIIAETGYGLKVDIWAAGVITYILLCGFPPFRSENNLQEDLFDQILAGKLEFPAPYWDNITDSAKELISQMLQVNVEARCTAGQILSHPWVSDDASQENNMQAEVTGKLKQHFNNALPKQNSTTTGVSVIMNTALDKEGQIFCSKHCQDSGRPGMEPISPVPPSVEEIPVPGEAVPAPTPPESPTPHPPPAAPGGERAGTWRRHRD
Details: at 1 µM
Readout: residual activity (%)

1) C[S+]([O-])c1ccc(-c2nc(-c3ccc(F)cc3)c(-c3ccncc3)[nH]2)cc1 (stereo unspecified)    132
2) O=C1Nc2ccc3ncsc3c2/C1=C/c1c[nH]cn1    55
3) CC(C)(C)c1cc(C=C(C#N)C#N)cc(Br)c1O    109
4) O=c1[nH]c2ccccc2n1C1CCN(Cc2ccc(-c3nc4cc5[nH]cnc5cc4nc3-c3ccccc3)cc2)CC1    87
5) CCn1cnc2c(Nc3cccc(Cl)c3)nc(N[C@@H]3CCCC[C@@H]3N)nc21    124
6) CC(C)[C@H](CO)Nc1nc(Nc2cccc(Cl)c2)c2ncn(C(C)C)c2n1    128

====

The following compounds are listed with their measured residual activity values.
Biological target: Serine/threonine-protein kinase TAO3 (Homo sapiens) (UniProt Q9H2K8)
Sequence (whole entry): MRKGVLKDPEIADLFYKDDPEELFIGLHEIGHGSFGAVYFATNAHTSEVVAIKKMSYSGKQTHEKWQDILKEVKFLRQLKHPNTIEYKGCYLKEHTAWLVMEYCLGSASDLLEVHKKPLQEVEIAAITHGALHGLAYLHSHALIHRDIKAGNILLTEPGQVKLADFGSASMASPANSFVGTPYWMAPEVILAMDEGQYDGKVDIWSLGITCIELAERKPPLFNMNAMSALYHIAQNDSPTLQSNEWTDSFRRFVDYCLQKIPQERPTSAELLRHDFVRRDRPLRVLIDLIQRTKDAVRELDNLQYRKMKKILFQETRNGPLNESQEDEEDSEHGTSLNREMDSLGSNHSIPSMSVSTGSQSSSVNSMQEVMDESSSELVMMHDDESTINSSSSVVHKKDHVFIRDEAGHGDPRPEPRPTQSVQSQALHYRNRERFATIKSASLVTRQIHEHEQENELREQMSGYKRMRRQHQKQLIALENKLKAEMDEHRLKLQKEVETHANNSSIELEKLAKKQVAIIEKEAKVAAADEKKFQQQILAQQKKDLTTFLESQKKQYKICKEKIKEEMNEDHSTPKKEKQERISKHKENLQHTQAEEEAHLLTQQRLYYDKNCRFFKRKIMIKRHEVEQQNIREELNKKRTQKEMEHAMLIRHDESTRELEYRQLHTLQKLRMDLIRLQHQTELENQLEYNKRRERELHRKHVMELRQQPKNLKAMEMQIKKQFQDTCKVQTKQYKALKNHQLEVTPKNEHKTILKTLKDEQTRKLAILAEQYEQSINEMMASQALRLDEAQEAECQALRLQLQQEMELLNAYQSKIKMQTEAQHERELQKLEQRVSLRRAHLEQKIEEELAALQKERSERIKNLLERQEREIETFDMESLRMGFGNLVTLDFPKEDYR
Details: at 1 µM
Readout: residual activity (%)

1. COc1cc(OC)c(/C=C2\C(=O)Nc3ccccc32)c(OC)c1    90
2. COC(=O)[C@@]1(O)C[C@H]2O[C@]1(C)n1c3ccccc3c3c4c(c5c6ccccc6n2c5c31)C(=O)NC4    10
3. O=C1NC(=O)c2c1c1c3ccccc3n3c1c1c2c2ccccc2n1C1CCC3O1    96
4. CC(C)[C@H](CO)Nc1nc(Nc2cccc(Cl)c2)c2ncn(C(C)C)c2n1    82
5. C[S+]([O-])c1ccc(-c2nc(-c3ccc(F)cc3)c(-c3ccncc3)[nH]2)cc1 (stereo unspecified)    108
6. O=[N+]([O-])/C=C/c1ccc2c(c1)OCO2    90
